- Test System: human NAMPT (Homo sapiens (Human), UniProt P43490)
- Sequence (P43490 whole entry): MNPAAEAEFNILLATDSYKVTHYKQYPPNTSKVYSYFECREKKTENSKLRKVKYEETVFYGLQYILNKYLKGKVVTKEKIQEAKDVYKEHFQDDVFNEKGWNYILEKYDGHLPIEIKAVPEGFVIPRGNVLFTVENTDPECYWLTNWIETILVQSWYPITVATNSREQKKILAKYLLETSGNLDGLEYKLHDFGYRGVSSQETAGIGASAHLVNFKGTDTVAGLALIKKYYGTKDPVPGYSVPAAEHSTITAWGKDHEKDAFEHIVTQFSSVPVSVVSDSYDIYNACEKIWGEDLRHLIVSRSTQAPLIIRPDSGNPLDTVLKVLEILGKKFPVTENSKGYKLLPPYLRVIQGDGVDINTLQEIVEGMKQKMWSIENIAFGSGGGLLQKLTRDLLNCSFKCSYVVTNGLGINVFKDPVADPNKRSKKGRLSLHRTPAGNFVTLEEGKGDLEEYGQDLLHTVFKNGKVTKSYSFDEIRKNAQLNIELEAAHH
- Assay Summary: NMN fluorescence biochemical assay (human recombinant NAMPT enzyme assay)
Measurement Label: EC50 (µM)

P = O=C(Nc1ccc(Cc2ccncc2)cc1)OCc1cn[nH]c1
Q = C[C@H](NC(=O)C1CC(F)(F)C1)c1ccc(NC(=O)OCc2cnco2)cc1
Q: Identify the entry with the larger EC50. Options: P and Q Selection: enter the item's label.
Ans: P
(P: 51.2 µM, Q: 26.3 µM)

1 = Cc1ocnc1C(=O)N(C)Cc1ccc(NC(=O)OCc2ccc(Cl)cc2)cc1
2 = O=C(Nc1ccc(CNC(=O)C2CCOCC2)cc1)OCc1ccc(Cl)cc1
Q: Of 1 versus 2 , which is the one with smaller reported EC50? Your choice should be expressed through its label.
Ans: 2
(2: 9.55 µM, 1: 45.6 µM)

P = CN(C)S(=O)(=O)N1CCC(c2ccc(NC(=O)OCc3cnco3)cc2F)CC1
Q = COc1ccc(COC(=O)Nc2ccc(Cc3ccncc3)cc2)cc1
R = CC(O)(c1ccncc1)c1ccc(NC(=O)OCc2cncs2)cc1 (stereo not drawn)
Q: Sort (3 compounds) by EC50: min first. Note for the reader: the ranking is given by listing the labels in the order requested.
Ans: P, Q, R
(P: 2.58 µM, Q: 11.9 µM, R: 33.6 µM)
